The origin of these recorded values is patent EP3375430A1.

Overview of recorded amount of fragrance ingredient retained on blotter (percentage of the initial amount) for various molecules
- ASSAY_TEXT: Amount of fragrance ingredients retained on paper blotter after evaporation (ethanol extraction, GC-MS)
- Format: physicochemical
- TEST_CONTEXT: Table 9; fragrance COM1 in C6; T0 + 480 min
- Description: A fragrance (hereafter fragrance TAK, the formulation of which is shown in table 1) was formulated in a typical Eau de Toilette (EdT1) or in fragrance compositions according to the invention (compositions C1 to C4), as shown in table 2. The amount of individual fragrance ingredients retained on paper substrate (blotter) after set time periods was assessed by the following method. […]
MEASURED_ENDPOINT: amount of fragrance ingredient retained on blotter (percentage of the initial amount) (%)

>  <MOLECULE>
CC1(C)CCC[C@]2(C)[C@H]3CCO[C@]3(C)CC[C@@H]12

>  <UNIT_OF_MEASURE>
%

>  <OP>
=

>  <VAL>
52.6

$$$$
>  <MOLECULE>
CC=CC(=O)C1=C(C)CCCC1(C)C

>  <UNIT_OF_MEASURE>
%

>  <OP>
=

>  <VAL>
14.7

$$$$
>  <MOLECULE>
C=C(C)[C@H]1CC=C(C)CC1

>  <UNIT_OF_MEASURE>
%

>  <OP>
<

>  <VAL>
1

$$$$
>  <MOLECULE>
CC/C=C(\C)C(O)CCCCC (centres unmarked) [Undecavertol™, (E)-4-methyldec-3-en-5-ol]

>  <UNIT_OF_MEASURE>
%

>  <OP>
=

>  <VAL>
14

$$$$
>  <MOLECULE>
CC(=O)OC1CCCCC1C(C)(C)C (centres unmarked) [Verdox™, (2-tert-butylcyclohexyl) acetate]

>  <UNIT_OF_MEASURE>
%

>  <OP>
=

>  <VAL>
1.7

$$$$
>  <MOLECULE>
C=CC(C)(O)CCC=C(C)CC (mixture of isomers)

>  <UNIT_OF_MEASURE>
%

>  <OP>
=

>  <VAL>
6.9

$$$$
>  <MOLECULE>
CC(C)(C)c1ccc(CCC=O)cc1

>  <UNIT_OF_MEASURE>
%

>  <OP>
=

>  <VAL>
43.6

$$$$
>  <MOLECULE>
CC(C=O)Cc1ccc(C(C)C)cc1 (centres unmarked)

>  <UNIT_OF_MEASURE>
%

>  <OP>
=

>  <VAL>
33.2

$$$$

* * *

Overview of recorded amount of fragrance ingredient retained on blotter (percentage of the initial amount) for various compounds
- ASSAY_TEXT: Amount of fragrance ingredients retained on paper blotter after evaporation (ethanol extraction, GC-MS)
- Type: physicochemical
- TEST_CONTEXT: Table 3; fragrance TAK in C1; 240 min; 32°C
MEASURED_ENDPOINT: amount of fragrance ingredient retained on blotter (percentage of the initial amount) (%)

>  <COMPOUND>
C=CC(C)(CCC=C(C)C)OC(C)=O (stereo not drawn) [Linalyl acetate]

>  <VAL>
19

$$$$
>  <COMPOUND>
O=C1CCCCCCCCCCCC(=O)OCCO1 [Ethylene Brassylate]

>  <VAL>
86

$$$$
>  <COMPOUND>
CCCCCCOC(C)=O [Hexyl acetate, Hexyl Acetate]

>  <VAL>
2

$$$$

* * *

Overview of recorded amount of fragrance ingredient retained on blotter (percentage of the initial amount) for various compounds
- ASSAY_TEXT: Amount of fragrance ingredients retained on paper blotter after evaporation (ethanol extraction, GC-MS)
- Type: physicochemical
- TEST_CONTEXT: Table 5; fragrance TAK in EdT1 or C3; T0, set at 100% (normalisation)
MEASURED_ENDPOINT: amount of fragrance ingredient retained on blotter (percentage of the initial amount) (%)

>  <COMPOUND>
CC/C=C\CCOC(=O)c1ccccc1O [Cis 3-hexenyl salicylate, Cis-3-hexenyl salicylate]

>  <UNIT_OF_MEASURE>
%

>  <VAL>
100

$$$$
>  <COMPOUND>
C=CC(C)(CCC=C(C)C)OC(C)=O (centres unmarked) [Linalyl acetate]

>  <UNIT_OF_MEASURE>
%

>  <VAL>
100

$$$$
>  <COMPOUND>
O=C1CCCCCCCCCCCC(=O)OCCO1 [Ethylene Brassylate]

>  <UNIT_OF_MEASURE>
%

>  <VAL>
100

$$$$
>  <COMPOUND>
CC(C=O)Cc1ccc(C(C)(C)C)cc1 (centres unmarked) [Lilial™, 3-(4-tert-Butylphenyl)-2-methylpropanal]

>  <UNIT_OF_MEASURE>
%

>  <VAL>
100

$$$$
>  <COMPOUND>
CCCCCCOC(C)=O [Hexyl acetate, Hexyl Acetate]

>  <UNIT_OF_MEASURE>
%

>  <VAL>
100

$$$$

* * *

- ASSAY_TEXT: Amount of fragrance ingredients retained on paper blotter after evaporation (ethanol extraction, GC-MS)
- Format: physicochemical
- TEST_CONTEXT: Table 9; fragrance COM1 in C5; T0 + 15 min
MEASURED_ENDPOINT: amount of fragrance ingredient retained on blotter (percentage of the initial amount)

>  <COMPOUND>
C=CC(C)(O)CCC=C(C)CC (mixture of isomers)

>  <VAL>
80.96%

$$$$
>  <COMPOUND>
CC/C=C(\C)C(O)CCCCC (centres unmarked) [Undecavertol™, (E)-4-methyldec-3-en-5-ol]

>  <VAL>
84.6%

$$$$
>  <COMPOUND>
CC(=O)OC1CCCCC1C(C)(C)C (centres unmarked) [Verdox™, (2-tert-butylcyclohexyl) acetate]

>  <VAL>
75.1%

$$$$
>  <COMPOUND>
CC1(C)CCC[C@]2(C)[C@H]3CCO[C@]3(C)CC[C@@H]12

>  <VAL>
85.4%

$$$$
>  <COMPOUND>
CC(C)(C)c1ccc(CCC=O)cc1

>  <VAL>
86%

$$$$
>  <COMPOUND>
CC=CC(=O)C1=C(C)CCCC1(C)C

>  <VAL>
81.9%

$$$$
>  <COMPOUND>
CC(C=O)Cc1ccc(C(C)C)cc1 (centres unmarked)

>  <VAL>
85.8%

$$$$
>  <COMPOUND>
C=C(C)[C@H]1CC=C(C)CC1

>  <VAL>
11.32%

$$$$

* * *

- ASSAY_TEXT: Amount of fragrance ingredients retained on paper blotter after evaporation (ethanol extraction, GC-MS)
- Assay type: physicochemical
- TEST_CONTEXT: Table 6; fragrance TAK in C4; 120 min; 32°C
- Description: A fragrance (hereafter fragrance TAK, the formulation of which is shown in table 1) was formulated in a typical Eau de Toilette (EdT1) or in fragrance compositions according to the invention (compositions C1 to C4), as shown in table 2. The amount of individual fragrance ingredients retained on paper substrate (blotter) after set time periods was assessed by the following method. […]
Overview of recorded amount of fragrance ingredient retained on blotter (percentage of the initial amount) for various molecules
MEASURED_ENDPOINT: amount of fragrance ingredient retained on blotter (percentage of the initial amount) (%)

>  <MOLECULE>
CC/C=C\CCOC(=O)c1ccccc1O [Cis 3-hexenyl salicylate, Cis-3-hexenyl salicylate]

>  <VAL>
93

$$$$
>  <MOLECULE>
C=CC(C)(CCC=C(C)C)OC(C)=O (centres unmarked) [Linalyl acetate]

>  <VAL>
34

$$$$
>  <MOLECULE>
C=C(C)[C@H]1CC=C(C)CC1 [Limonene]

>  <VAL>
1

$$$$
>  <MOLECULE>
CCCCCCOC(C)=O [Hexyl acetate, Hexyl Acetate]

>  <VAL>
5

$$$$
>  <MOLECULE>
CC(C=O)Cc1ccc(C(C)(C)C)cc1 (centres unmarked) [Lilial™, 3-(4-tert-Butylphenyl)-2-methylpropanal]

>  <VAL>
88

$$$$

* * *

- ASSAY_TEXT: Amount of fragrance ingredients retained on paper blotter after evaporation (ethanol extraction, GC-MS)
- Assay type: physicochemical
- TEST_CONTEXT: Table 9; fragrance COM1 in C5; T0 +1440 min
MEASURED_ENDPOINT: amount of fragrance ingredient retained on blotter (percentage of the initial amount) (%)

>  <COMPOUND>
C=CC(C)(O)CCC=C(C)CC (mixture of isomers)

>  <VAL>
2.22

$$$$
>  <COMPOUND>
CC(C=O)Cc1ccc(C(C)C)cc1 (stereo not drawn)

>  <VAL>
14.71

$$$$
>  <COMPOUND>
CC=CC(=O)C1=C(C)CCCC1(C)C

>  <VAL>
2.12

$$$$

* * *

- ASSAY_TEXT: Headspace concentration of fragrance ingredients over blotter (thermal desorption GC-MS)
- Format: physicochemical
- TEST_CONTEXT: fragrance TAK; T0 + 8h; Figure 4
MEASURED_ENDPOINT: headspace concentration in composition C1 compared to control EdT1

>  <COMPOUND>
CC(=O)OC1CCCCC1C(C)(C)C (centres unmarked) [Verdox™, (2-tert-butylcyclohexyl) acetate]

>  <VAL>
much greater

$$$$
>  <COMPOUND>
C=CC(C)(CCC=C(C)C)OC(C)=O (centres unmarked) [Linalyl acetate]

>  <VAL>
much greater

$$$$
>  <COMPOUND>
C=CC(C)(O)CCC=C(C)C (centres unmarked) [Linalool]

>  <VAL>
much greater

$$$$
>  <COMPOUND>
CC/C=C\CCOC(=O)c1ccccc1O [Cis 3-hexenyl salicylate, Cis-3-hexenyl salicylate]

>  <VAL>
lower

$$$$
